The values you see were collected from patent US9682977B2.

- Target: GST-tagged ROR gamma ligand binding domain (LBD) (Homo sapiens)
- Construct: purchased Invitrogen
- Sequence (P51449 269-508 limits assumed): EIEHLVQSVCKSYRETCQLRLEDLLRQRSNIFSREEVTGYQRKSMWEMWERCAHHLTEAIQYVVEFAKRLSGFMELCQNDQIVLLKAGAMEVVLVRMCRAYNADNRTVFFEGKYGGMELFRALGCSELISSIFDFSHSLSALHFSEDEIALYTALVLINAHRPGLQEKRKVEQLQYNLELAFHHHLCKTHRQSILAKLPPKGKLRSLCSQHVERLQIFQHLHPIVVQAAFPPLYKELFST
- Assay Name: TR-FRET assay for ROR gamma (Lantha Screen, co-activator peptide recruitment)
- Type: biochemical
- Experimental Context: read-out: % inhibition at 1 μM; compound concentration 1 μM; TR-FRET ratio 520/495, percent of control
Quick reference for inhibition at 1 µM among some compounds
Your answer should be a plain number; it is taken to be in %.

These solved cases illustrate the format of a correct answer.
{"Compound String": "O=C(O)c1ccc(-n2nc(C(=O)c3c(Cl)cccc3C3CC3)c3cccnc32)cc1", "Endpoint Result": 97.6}
{"Compound String": "O=C(O)c1ccc(-n2nc(Oc3ccccc3C(F)(F)F)c3ccccc32)c(F)c1", "Endpoint Result": 96.4}
{"Compound String": "O=C(O)c1ccc(-n2nc(Oc3ccc(Cl)cc3C(F)(F)F)c3ccccc32)c(F)c1", "Endpoint Result": 86.5}
{"Compound String": "O=C(O)c1ccc(-n2cc(C(=O)c3c(Cl)cccc3Cl)c3cc(F)ccc32)c(F)c1", "Endpoint Result": 98.2}
{"Compound String": "CC(C)OC(=O)c1ccc(-n2nc(Oc3c(Cl)cccc3C(F)(F)F)c3ccccc32)c(F)c1", "Endpoint Result": 26.3}

What the record says about O=C(O)c1ccc(-n2nc(C(=O)c3c(Cl)cccc3Cl)c3ccccc32)c(F)c1 : inhibition at 1 µM is 96.6

What the record says about O=C(O)c1ccc(-n2cc(C(=O)c3ccccc3F)c3ccccc32)cc1 : inhibition at 1 µM is 76.4

What the record says about O=C(O)c1ccc(-n2nc(C(=O)c3c(Cl)cccc3Cl)c3ccccc32)cc1 : inhibition at 1 µM is 96.9
